Data provenance: patent US11066398B2

EXPERIMENTAL PROTOCOL: Pharmacokinetics and tolerability in mice
Type: in vivo, mouse
RECORDED CONDITIONS: mouse, plasma, ip; mice, 10 mg/kg intraperitoneally, at 4 hours; read-out: Concentration in the plasma
RECORDED METRIC: concentration at 4 h (µM)
One number for each entry, in µM.

concentration at 4 h for NC(=O)c1ccc(-c2cc(-c3ccc([N+](=O)[O-])cc3)nc(-c3ccco3)c2)cc1 [CG-RS-44] is 3.5

====

MEASUREMENT TARGET: ATG-Myc (Homo sapiens, UniProt P01106)
Sequence (P01106 whole entry): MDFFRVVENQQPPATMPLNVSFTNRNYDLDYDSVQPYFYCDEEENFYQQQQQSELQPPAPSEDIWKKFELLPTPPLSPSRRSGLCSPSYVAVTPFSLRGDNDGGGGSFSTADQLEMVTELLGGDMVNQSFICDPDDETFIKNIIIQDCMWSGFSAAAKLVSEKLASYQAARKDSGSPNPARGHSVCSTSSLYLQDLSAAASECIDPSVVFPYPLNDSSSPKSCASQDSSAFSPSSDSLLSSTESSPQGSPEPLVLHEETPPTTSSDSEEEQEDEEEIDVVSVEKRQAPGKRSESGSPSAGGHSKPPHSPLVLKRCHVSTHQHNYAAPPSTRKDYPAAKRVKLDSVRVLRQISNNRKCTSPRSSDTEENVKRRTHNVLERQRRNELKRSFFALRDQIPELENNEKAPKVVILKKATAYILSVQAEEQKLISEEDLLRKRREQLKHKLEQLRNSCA
EXPERIMENTAL PROTOCOL: Myc-induced oncogenic transformation (focus assay) in chicken embryo fibroblasts
Assay type: cell-based
RECORDED CONDITIONS: CEF focus assay, concentration of 10 μM
RECORDED METRIC: Inhibition of ATG-Myc focus formation

Worked cases, answers included:
COMPOUND | RECORDED METRIC | VALUE REPORTED
COC(=O)c1cccc(-c2cc(-c3ccc(C(N)=O)cc3)cc(-c3ccco3)n2)c1 [CG-RS-70] | Inhibition of ATG-Myc focus formation | no foci formation
NC(=O)c1ccc(-c2cc(-c3ccc(Br)cc3)nc(-c3ccc([N+](=O)[O-])cc3)c2)cc1 [CG-RS-90] | Inhibition of ATG-Myc focus formation | no inhibition
NC(=O)c1ccc(-c2cc(-c3ccc([N+](=O)[O-])cc3)nc(-c3ccc(Br)cn3)c2)cc1 [CG-RS-123] | Inhibition of ATG-Myc focus formation | no inhibition
NC(=O)c1ccc(-c2cc(-c3ccc([N+](=O)[O-])cc3)nc(-c3ccccc3Br)c2)cc1 [CG-RS-91] | Inhibition of ATG-Myc focus formation | no inhibition
NC(=O)c1ccc(-c2cc(-c3ccc([N+](=O)[O-])cc3)nc(-c3cccc(Br)n3)c2)cc1 [CG-RS-106] | Inhibition of ATG-Myc focus formation | no inhibition

Answer for every listed entry: what is its Inhibition of ATG-Myc focus formation? The entries follow.
1. CS(=O)(=O)c1ccc(-c2cc(-c3ccc(C(N)=O)cc3)cc(-c3ccco3)n2)cc1 [CG-RS-58]
2. NC(=O)c1ccc(-c2cc(-c3ccc(SC(F)(F)F)cc3)nc(-c3ccco3)c2)cc1 [CG-RS-61]
3. NC(=O)c1ccc(-c2cc(-c3ccncc3)nc(-c3ccc([N+](=O)[O-])cc3)c2)cc1 [CG-RS-129]
4. NC(=O)c1ccc(-c2cc(-c3ccc([N+](=O)[O-])cc3)nc(-c3ccco3)c2)cc1 [CG-RS-44]

Reply:
["no inhibition", "no inhibition", "no foci formation", "no foci formation"]

====

MEASUREMENT TARGET: ATG-Myc (Homo sapiens)
EXPERIMENTAL PROTOCOL: Myc-induced oncogenic transformation (focus assay) in chicken embryo fibroblasts
Format: cell-based
RECORDED CONDITIONS: CEF focus assay, concentration of 10 μM

COMPOUND | Inhibition of ATG-Myc focus formation
NC(=O)c1ccc(-c2cc(-c3ccc([N+](=O)[O-])cc3)nc(-c3ccccn3)c2)cc1 [CG-RS-128] | no inhibition
COC(=O)c1ccc(-c2cc(-c3ccc(C(N)=O)cc3)cc(-c3ccco3)n2)cc1 [CG-RS-64] | no inhibition
